- Test system: Plasmodium falciparum
- procedureDetails: Calibr Malaria Delayed Death Assay SOP
- Assay type: functional, organism-based
- Design: scale not given: in the data most compounds retested in dose-response had high values
- recordedConditions: concentration 4.99e-06 (unit not given; other assays of the set use mol/L)
Among all 38,000 compounds or so, about 1,200 (3.2%) showed an effect of 50% or more. The median lay at about -58%. Many of the other results were omitted from the sample, so strong results are more common in it than they were.
This section presents compounds with their documented Percent Effect values.
A number alone suffices; assume %.

Completed entries (count: 5):
{"compound": "OC(CN1CCC(c2ccn[nH]2)CC1)c1ccc(F)cc1F (stereo unspecified)", "readoutUnits": "%", "measurement": -72.07}
{"compound": "CNc1cc(C)nc(-c2cc(NCCO)nc3[nH]ccc23)n1", "readoutUnits": "%", "measurement": -113.9}
{"compound": "COc1ccc(CN2CC[C@@H](O)[C@@H]2Cc2ccccc2)cc1.O=C(O)C(F)(F)F", "readoutUnits": "%", "measurement": 80.27}
{"compound": "OCC1CCCCN1CCn1ccnc1-c1nc2ccccc2[nH]1 (stereo unspecified)", "readoutUnits": "%", "measurement": 10.13}
{"compound": "CNc1cc(C)nc(NCc2cc(C)cc3c(C)c(C)[nH]c23)n1", "readoutUnits": "%", "measurement": 91.83}

Would you kindly look at the next entry?
Quick check: Percent Effect of CO[C@H]1CN(CC2CCOCC2)[C@@H]2CCCO[C@H]12.O=C(O)C(F)(F)F ?
-55.37

----------
- System: Plasmodium falciparum
- procedureDetails: Calibr Malaria Delayed Death Assay SOP
- Type: functional, organism-based
- Parameters: scale not given: in the data most compounds retested in dose-response had high values
- recordedConditions: concentration 4.99e-06 (unit not given; other assays of the set use mol/L)
Among all 38,000 compounds or so, about 1,200 (3.2%) showed an effect of 50% or more. The median lay at about -58%. The list comes from a sample in which strong results are over-represented; it also holds close analogues and randomly drawn compounds.
measurementName: Percent Effect
Param answer (str): number followed by unit.

Item under review: CC(C)Cn1c(=O)n(CCn2cc(Cl)cn2)c2cc(C(=O)O)cnc21 . Reported Percent Effect?
-13.68%

// next record c1cnc(-c2nc(C3CCOC3)no2)cn1 (stereo not given)
-46.11%

Try this compound next: Cc1nc(N2CCN(C)CC2)ncc1C(=O)N1CCCCCC1
-28.58%

Also, Cc1cc(CN2CCN(c3ccnc(-c4ccccc4)n3)CC2)no1 please.
-117.2%

What would you report for O=C(C1=CCCC1)N1C[C@@H]2COC[C@]2(COCC2CC2)C1 ?
-77.68%

----------
- Tested on: Plasmodium falciparum
- procedureDetails: Calibr Malaria Delayed Death Assay SOP
- Assay type: functional, organism-based
- Design: scale not given: in the data most compounds retested in dose-response had high values
- recordedConditions: concentration 4.99e-06 (unit not given; other assays of the set use mol/L)
The campaign covered roughly 38,000 compounds. About 1,200 (3.2%) showed an effect of 50% or more. The median lay at about -58%. What follows is part of a selection rich in strong results, with near analogues and random picks from the rest.
// reported Percent Effect for each item listed

{"compound": "COc1cnc(N2CC(N3CCOCC3)C2)nc1-c1ccnn1C", "measurement": "75.52%"}
{"compound": "COc1cnc(N2CCN(C)CC2)nc1-c1ccnn1C", "measurement": "-14.56%"}
{"compound": "Cc1nc(CCNC(=O)C2CC(=O)N(C(C)C)C2)cs1 (stereo unspecified)", "measurement": "-69.29%"}
{"compound": "Fc1ccc(OCCCN2CCCC(Cn3cncn3)C2)cc1 (stereo unspecified)", "measurement": "-24.19%"}
{"compound": "O=C(Nc1ccccn1)C1CCN(Cc2cccc3c2OCCO3)CC1", "measurement": "-6.102%"}
{"compound": "CC(O)c1cccc(-n2c(CCC(=O)O)nc3ccccc32)c1 (stereo unspecified)", "measurement": "-169.3%"}
{"compound": "Cc1nccn1CCCC(=O)N1CCC2(CCC(=O)N(C(C)C)C2)CC1", "measurement": "-32.26%"}
{"compound": "O=C(C1CCOCC1)N1CCC2(CC1)CN(c1ccsc1)C(=O)CO2", "measurement": "-132.3%"}

For Plasmodium falciparum, provide Percent Effect of O=C(O)C(F)(F)F.O=C(O)C(F)(F)F.c1nc(CNC2CCOCC2)c2n1CCCN(CC1CC1)C2 please.
-115.6%

Proceed to COCCc1noc(CN2CC(Cc3ccccc3)CC2=O)n1 (stereo unspecified)
-62.6%

Param item: OCCNc1nc(Nc2ccccc2)c2nccnc2n1
-38.96%

----------
Listing: Percent Effect of selected compounds
- Tested on: Plasmodium falciparum
- procedureDetails: Calibr Malaria Delayed Death Assay SOP
- Assay type: functional, organism-based
- Set-up: scale not given: in the data most compounds retested in dose-response had high values
- recordedConditions: concentration 4.99e-06 (unit not given; other assays of the set use mol/L)
Hit rate of the full screen: of about 38,000 compounds, about 1,200 (3.2%) showed an effect of 50% or more. The median lay at about -58%. For the sample, strong results were picked, then their nearest neighbours and some compounds at random.
Answer in %, number only, no unit symbol.

# count of solved cases: 2
{"compound": "Cc1c(COC(C)C)cccc1NC(=O)N1CC[C@H](O)C1", "measurementName": "Percent Effect", "readoutUnits": "%", "measurement": -81.26}
{"compound": "COC(=O)c1ccc(C2CC(=O)Nc3c2cnn3C)cc1 (stereo unspecified)", "measurementName": "Percent Effect", "readoutUnits": "%", "measurement": -67.54}

Now, please, on to the next compound.
May I ask what Percent Effect has been recorded for Clc1ccc(C2(CNC3=NCCN3)CC2)cc1.I ?
82.97

----------
- System: Plasmodium falciparum
- procedureDetails: Calibr Malaria Delayed Death Assay SOP
- Assay type: functional, organism-based
- Set-up: scale not given: in the data most compounds retested in dose-response had high values
- recordedConditions: concentration 4.99e-06 (unit not given; other assays of the set use mol/L)
The whole screen tested about 38,000 compounds, of which about 1,200 (3.2%) showed an effect of 50% or more. The median lay at about -58%. For the sample, strong results were picked, then their nearest neighbours and some compounds at random.
Tag: rule met if measured Percent Effect is not below 50%, rule not met if it is.

{"compound": "CC(C)(C)c1nccc(C2(c3ccccc3Cl)CCNCC2)n1", "label": "rule met"}
{"compound": "Clc1ccccc1C1(c2ccnc(-c3ccncc3)n2)CCNCC1", "label": "rule met"}
{"compound": "CCC1C(=O)NCCN1c1ccnc(C(C)(C)C)n1 (stereo not given)", "label": "rule not met"}
{"compound": "O=c1[nH]cccc1-c1nccc(C2(c3ccccc3Cl)CCNCC2)n1", "label": "rule not met"}

Okay, next one:
Evaluate CN(C)S(=O)(=O)N1CC[C@]2(O)CCN(CCc3cccc(F)c3)C[C@@H]2C1 : Percent Effect at minimum 50%?
rule met

----------
# Percent Effect per record follows
- Test system: Plasmodium falciparum
- procedureDetails: Calibr Malaria Delayed Death Assay SOP
- Format: functional, organism-based
- Parameters: scale not given: in the data most compounds retested in dose-response had high values
- recordedConditions: concentration 4.99e-06 (unit not given; other assays of the set use mol/L)
The campaign covered roughly 38,000 compounds. About 1,200 (3.2%) showed an effect of 50% or more. The median lay at about -58%. This excerpt belongs to a sample that is enriched for strong results.
Answer with a number only, understood to be in %.

Solved cases below.
{"compound": "COc1cccc(CN2CC3(CCNCC3)CCC2=O)c1OC", "measurementName": "Percent Effect", "measurement": 6.381}
{"compound": "Cc1cc2ccccc2n1CCC(=O)N1CCCC(O)(CN(C)C)CC1 (stereo unspecified)", "measurementName": "Percent Effect", "measurement": 54.68}
{"compound": "Cc1c(C(=O)N2CCCC(O)(CN(C)C)CC2)c2cc(O)ccc2n1C (stereo unspecified)", "measurementName": "Percent Effect", "measurement": -101.4}
{"compound": "CSCCCN1C[C@H](NC(=O)c2cc(C3CC3)on2)[C@@H](C2CC2)C1", "measurementName": "Percent Effect", "measurement": 21.88}

Identify the measured Percent Effect of O=C(NCC1CC1)C1CCC2(CCN(C(=O)c3ccccn3)CC2)O1.O=C(O)C(F)(F)F (stereo unspecified) for Plasmodium falciparum.
-137.4

Again, but for COc1cc(C)c(S(=O)(=O)CC(=O)N(C)C2CC2)cc1OC
-72.85

----------
Below, each entry is listed with its recorded Percent Effect.
- System: Plasmodium falciparum
- procedureDetails: Calibr Malaria Delayed Death Assay SOP
- Format: functional, organism-based
- Parameters: scale not given: in the data most compounds retested in dose-response had high values
- recordedConditions: concentration 4.99e-06 (unit not given; other assays of the set use mol/L)
Out of some 38,000 compounds screened, about 1,200 (3.2%) showed an effect of 50% or more. The median lay at about -58%. Only a selection was taken, and strong results are over-represented in it overall.
Provide only the numeric value, understood in %.

{"compound": "CCCSc1nn(CCN(C)C)c2nc3sc(C)c(CC)c3c(=O)n12", "readoutUnits": "%", "Percent Effect": 46.83}

Which Percent Effect value is on record for Cn1cc(N2CCC3(CCCN(C(=O)c4ccnn4C)C3)C2=O)cn1 (stereo unspecified) ?
-100.5

Now try COc1ccc(N2CCN(C(=O)c3nc(Cl)sc3C(C)C)CC2)cc1 .
-116.1

// repeat for O=C(C1CCOCC1)N1C[C@H]2CCC[C@@]2(COc2cccnc2)C1.O=C(O)C(F)(F)F and report
-16.46

Please answer likewise for NC(=O)CN(Cc1ccc(Br)cc1)C(=O)c1cccnc1
-140.6

Ok, now O=C(C1CCOC1)N1CCC2(CCN(Cc3nccs3)C2)CC1 (stereo unspecified)
-29.96

meta.source: ChEMBL document CHEMBL3988442
